System: KRAS G12D G12D, P01116-2
Conditions: Nap-dU at n (6) positions [4,9,13,19,26,27,28,30,39]; ELISA, SB18, 37 C
Outcome Measure: pKd
// pKd here means minus log10 of the molar concentration (mol/L)

I am curious: what pKd value has been reported for GACTAGCATAAGTCCGGATGGCAGCTTTATGCCGACCAT [AD005] ?
7.64

----------
System: KRAS G12D G12D, P01116-2
Assay: BLI
Conditions: Nap-dU at n (6) positions [4,9,13,19,26,27,28,30,39]; SB18, 37 C, immobilised biotin ligand
Outcome Measure: pKd
// pKd here means minus log10 of the molar concentration (mol/L)

I am curious: what pKd value has been reported for GACTAGCATAAGTCCGGATGGCAGCTTTATGCCGACCAT [AD005] ?
7.45
